- TARGET_OR_TEST_SYSTEM: recombinant human GALK1 (Homo sapiens, UniProt P51570)
- Sequence (P51570 whole entry): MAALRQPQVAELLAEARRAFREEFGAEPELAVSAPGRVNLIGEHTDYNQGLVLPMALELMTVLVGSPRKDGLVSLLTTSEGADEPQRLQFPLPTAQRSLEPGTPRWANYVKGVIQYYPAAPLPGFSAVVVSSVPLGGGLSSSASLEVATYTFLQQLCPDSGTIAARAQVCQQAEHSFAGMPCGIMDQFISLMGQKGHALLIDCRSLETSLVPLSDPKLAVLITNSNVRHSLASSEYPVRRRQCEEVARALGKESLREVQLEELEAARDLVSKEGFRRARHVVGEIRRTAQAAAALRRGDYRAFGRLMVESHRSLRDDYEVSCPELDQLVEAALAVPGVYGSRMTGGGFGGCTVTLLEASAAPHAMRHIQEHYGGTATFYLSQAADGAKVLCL
- METHOD: hGALK1 biochemical activity assay (Kinase-Glo Plus, ATP depletion)
- TEST_PARAMETERS: Tables 2-15; 35 μM ATP, 100 μM galactose, 1 h; bracketed figure after some values (e.g. −1.2) is undefined and not reported; read-out: hGALK IC50
MEASURED_ATTRIBUTE: IC50 (µM)
// return numeric value only (unit: µM, not printed)

Examples from the recorded data:
Can you look up the measured IC50 of "COc1ccc([C@H]2N=C(Nc3nc4ccc(F)cc4o3)NC(C)=C2C(=O)Nc2cc(C(=O)O)ccn2)c(Cl)c1" for me?
4.84

Now this one: CC1=C(C(=O)Nc2cc(C(N)=O)ccn2)C(c2ccccc2Cl)N=C(Nc2nc3ccccc3o2)N1 (stereo not shown)
2.43

Now this one: CC1=C(C(=O)Nc2cc(N(C)C)ccn2)C(c2ccc(C)cc2Cl)N=C(Nc2nc3ccc(F)cc3o2)N1 (stereo not shown)
4.32

For the next question, use this molecule.
Can you look up the measured IC50 of CC1=C(C(=O)Nc2cc(C(=O)O)ccn2)C(c2ccc(C)cc2Cl)N=C(Nc2nc3ccc(F)cc3o2)N1 (racemic) for me?
0.39

src = patent US20230158025A1
